system.tested: human DGKζ (Homo sapiens (Human))
Sequence (Q13574 other isoform, or with tags, fused parts or gaps): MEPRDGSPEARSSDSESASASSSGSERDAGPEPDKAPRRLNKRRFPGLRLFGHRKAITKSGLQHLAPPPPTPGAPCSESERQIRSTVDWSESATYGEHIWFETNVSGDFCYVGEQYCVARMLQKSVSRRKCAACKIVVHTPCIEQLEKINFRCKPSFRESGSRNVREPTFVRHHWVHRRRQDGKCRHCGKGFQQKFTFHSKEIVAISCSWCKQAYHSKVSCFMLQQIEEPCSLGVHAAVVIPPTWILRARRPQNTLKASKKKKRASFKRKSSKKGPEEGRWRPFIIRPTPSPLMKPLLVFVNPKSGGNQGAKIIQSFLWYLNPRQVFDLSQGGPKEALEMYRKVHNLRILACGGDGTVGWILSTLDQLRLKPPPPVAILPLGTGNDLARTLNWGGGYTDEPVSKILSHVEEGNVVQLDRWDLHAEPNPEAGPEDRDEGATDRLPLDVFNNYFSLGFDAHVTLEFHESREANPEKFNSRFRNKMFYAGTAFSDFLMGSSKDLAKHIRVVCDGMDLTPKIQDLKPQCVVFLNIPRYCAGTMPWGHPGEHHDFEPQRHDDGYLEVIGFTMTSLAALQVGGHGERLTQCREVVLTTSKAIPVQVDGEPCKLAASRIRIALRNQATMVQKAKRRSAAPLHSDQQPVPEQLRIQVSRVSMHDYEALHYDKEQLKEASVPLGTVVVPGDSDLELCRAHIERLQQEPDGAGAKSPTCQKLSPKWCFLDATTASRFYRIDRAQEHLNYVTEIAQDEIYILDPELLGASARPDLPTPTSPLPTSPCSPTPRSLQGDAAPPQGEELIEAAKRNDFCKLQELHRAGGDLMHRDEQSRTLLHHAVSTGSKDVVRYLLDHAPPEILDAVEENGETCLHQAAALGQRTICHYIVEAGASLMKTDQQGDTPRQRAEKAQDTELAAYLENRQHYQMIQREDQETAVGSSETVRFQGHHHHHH
procedure.text: DGKζ LIPGLO assay (extruded liposome substrate, ADP-Glo luminescence)
Format: biochemical
details: liposome (LIPGLO) assay; read-out: DGK zeta (liposome assay) IC50
pIC50: −log10 of the molar value.
Entries and their pIC50 values follow.
attribute.measured: pIC50

> print(dat)
                                   compound  attribute.measured  value.observed
1  CCC(c1c(F)cc(OCC2CC2)cc1F)N1C[C@H](C)N(c2nc(=O)n(C)c3ccc(C#N)nc23)C[C@H]1CC (stereo partly drawn) [Example 327]               pIC50            7.24
2  CCC(c1ccc(C(F)(F)F)cc1)N1C[C@H](C)N(c2nc(=O)n(C)c3ccc(C#N)nc23)C[C@H]1COC (single isomer, unassigned) [Example 399]               pIC50            6.15
3  CCC(c1ccc(OCC2CCOCC2)cc1)N1C[C@H](C)N(c2nc(=O)n(C)c3ccc(C#N)nc23)C[C@H]1CC (stereo partly drawn) [Example 338]               pIC50            5.88

---

system.tested: human DGKα (Homo sapiens (Human), UniProt P23743)
Sequence (P23743 whole entry, looked up): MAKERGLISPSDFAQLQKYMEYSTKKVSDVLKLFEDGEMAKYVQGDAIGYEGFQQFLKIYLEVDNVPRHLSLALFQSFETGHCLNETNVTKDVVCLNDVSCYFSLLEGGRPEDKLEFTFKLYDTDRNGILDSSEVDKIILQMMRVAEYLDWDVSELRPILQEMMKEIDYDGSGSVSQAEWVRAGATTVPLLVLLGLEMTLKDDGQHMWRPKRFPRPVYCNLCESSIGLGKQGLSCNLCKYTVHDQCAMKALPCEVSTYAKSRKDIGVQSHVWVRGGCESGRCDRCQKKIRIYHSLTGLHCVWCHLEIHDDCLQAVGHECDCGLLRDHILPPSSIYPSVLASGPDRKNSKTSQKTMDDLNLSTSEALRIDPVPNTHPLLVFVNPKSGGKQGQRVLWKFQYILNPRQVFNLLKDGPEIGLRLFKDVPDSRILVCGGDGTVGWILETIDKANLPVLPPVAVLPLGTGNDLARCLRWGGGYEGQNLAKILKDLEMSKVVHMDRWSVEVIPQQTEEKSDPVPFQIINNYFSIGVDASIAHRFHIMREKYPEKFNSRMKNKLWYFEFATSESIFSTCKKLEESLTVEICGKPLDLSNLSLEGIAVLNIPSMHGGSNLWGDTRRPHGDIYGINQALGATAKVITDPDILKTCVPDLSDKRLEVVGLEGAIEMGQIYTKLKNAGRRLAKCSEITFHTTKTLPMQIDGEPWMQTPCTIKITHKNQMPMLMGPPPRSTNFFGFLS
procedure.text: DGKα LIPGLO assay (extruded liposome substrate, ADP-Glo luminescence)
Type: biochemical
details: liposome assay; read-out: DGK alpha LIPGLO IC50
attribute.measured: log10 IC50 (log10 of the value in nM)

compound	value.observed
C[C@H]1CN(C(c2ccc(F)cc2)c2ccc(C(F)(F)F)cn2)[C@H](CO)CN1c1nc(=O)n(C)c2ccc(C#N)nc12 (single isomer, unassigned) [Example 181]	3.69
C[C@@H]1CN(c2nc(=O)n(C)c3ccc(C#N)nc23)[C@@H](C)CN1C(c1ccc(F)cc1)c1nc(C2CC2)cs1 (single isomer, unassigned) [Example 159]	1.97
CC[C@@H]1CN(c2nc(=O)n(C)c3ccc(C#N)nc23)[C@@H](C)CN1C(c1ccc(F)cc1)c1ccc(C(F)(F)F)nc1 (single isomer, unassigned) [Example 98]	2.49
CC[C@@H]1CN(c2nc(=O)n(C)c3ccc(C#N)nc23)[C@@H](C)CN1C(c1ccc(F)cc1)c1nc(C2CC2)no1 (stereo partly drawn) [Example 112]	1.63
CC(c1ccc(OC(F)F)cc1)N1C[C@H](C)N(c2nc(=O)n(C)c3ccc(C#N)nc23)C[C@H]1C (single isomer, unassigned) [Example 157]	2.52
CC[C@@H]1CN(c2nc(=O)n(C)c3ccc(C#N)nc23)[C@@H](CC)CN1Cc1ccc(OC(F)(F)F)cc1F	0.30

---

# IC50 per record follows
system.tested: human DGKζ (Homo sapiens (Human))
procedure.text: DGKζ LIPGLO assay (extruded liposome substrate, ADP-Glo luminescence)
Format: biochemical
details: liposome (LIPGLO) assay; read-out: DGK zeta (liposome assay) IC50
attribute.measured: IC50

molecule	attribute.measured	value.observed
CC(c1ccc(CN2CCOC(C)(C)C2)cc1)N1C[C@H](C)N(c2nc(=O)n(C)c3ccc(C#N)nc23)C[C@H]1C (single isomer, unassigned) [Example 385]	IC50	43 nM
CCOc1ccc(C(CC)N2C[C@H](C)N(c3nc(=O)n(C)c4ccc(C#N)nc34)C[C@H]2CC)cc1 (stereo partly drawn) [Example 306]	IC50	28 nM
CC(c1ccc(CN2C[C@@H](C)O[C@@H](C)C2)cc1)N1C[C@H](C)N(c2nc(=O)n(C)c3ccc(C#N)nc23)C[C@H]1C (stereo partly drawn) [Example 389]	IC50	8220 nM
CCC(c1ccc(OCC2CCOCC2)cc1)N1C[C@H](C)N(c2nc(=O)n(C)c3ccc(C#N)nc23)C[C@H]1CC (stereo partly drawn) [Example 337]	IC50	100 nM
CCC(c1ccc(OCC2COC2)cc1)N1C[C@H](C)N(c2nc(=O)n(C)c3ccc(C#N)nc23)C[C@H]1CC (stereo partly drawn) [Example 341]	IC50	130 nM
CC[C@@H]1CN(c2nc(=O)n(C)c3ccc(C#N)nc23)[C@@H](CO)CN1C(C)c1ccc(C(F)(F)F)cc1 (single isomer, unassigned) [Example 411]	IC50	1240 nM
